Tested on: Human papillomavirus type 1a E7 protein (residues 1-88)
Assay: HPV1a E7 small-molecule binders, primary screen, biochemical, small-molecule microarray, residues 1-88, 635 nm (AID 1129)
Conditions: small-molecule microarray binding, fluorescence 635 nm; higher = more signal
composite z-score values, listed per item
Respond numerically, and do not add a unit to the figure.

Use these answered entries as a reference point.
[N-]=[N+]=Nc1ccccc1[C@@H]1OC(c2ccc(OCCCO)cc2)=N[C@]1(CCS(=O)(=O)c1ccccc1)C(N)=O
1.23
COC(=O)[C@H](Cc1ccccc1)N1CC2=C[C@@H](C3CC3)n3c(=O)n(C)c(=O)n3[C@H]2[C@@H]1[C@@H](O)Cc1ccccc1
0.881
COc1cc(Br)cc(C(O)C2C=CC3C(=O)N(C)C(=O)C3N2N2CCCCC2)c1OC (centres undefined)
0.665

Now, please, on to the next compound.
So what does the record say about composite z-score for CC(C)N1C(=O)C[C@@](C(=O)NCC(F)(F)F)(c2ccc([N+](=O)[O-])cc2)[C@H]1c1ccc(CO)cc1 ?
0.38

###

Experiment: basal MM1S mitochondrial membrane potential changes, profiling panel, cell-based, JC-1 fluorescence, 24 h, 100 nL compound (AID 1170); note: test concentration not given here
Conditions: higher = more signal
Class key for z-score values: Low = under -1, Medium = from -1 up to -0.3, High = -0.3 and over

These recorded examples may help you get a feel for the data.
O=C1O[C@@H](c2ccccc2)[C@@H](c2ccccc2)N2[C@@H](c3ccccc3OCCO)[C@]3(C(=O)Nc4ccc(C#CC5=CCCCC5)cc43)[C@@H](C(=O)N3CCCCCCC3)[C@H]12
Low
COC(=O)[C@H](Cc1ccccc1)N1CC2=C[C@@H](C3CC3)n3c(=O)n(C)c(=O)n3[C@H]2[C@@H]1[C@@H](O)Cc1ccccc1
Medium
O=C1c2ccccc2[C@](Cc2ccccc2I)(C(=O)NCC(F)(F)F)[C@H](c2ccc(CO)cc2)N1Cc1ccccc1Cl
Low
COC(=O)[C@@]1(CCS(=O)(=O)c2ccccc2)N=C(c2ccc(OCCCO)cc2)O[C@H]1c1ccccc1CN=[N+]=[N-]
Low
COCCOC(=O)N1C(=O)[C@@]2(c3cc(C#CCNC(N)=O)ccc31)[C@H](C(=O)Nc1nc3ccccc3s1)[C@H]1C(=O)O[C@H](c3ccccc3)[C@H](c3ccccc3)N1[C@@H]2c1ccc(OCCO)cc1
Low
CN(C)CCCCCCNC(=O)[C@H]1C[C@H]2C(=O)N3CCC[C@H]3C(=O)N2[C@H]1c1ccc(O)cc1
High

Lab note: sort COC(=O)[C@@]1(Cc2ccc(F)cc2)[C@H]2c3cc(C(=O)N(C)C)n(Cc4ccc(Cl)c(C(F)(F)F)c4)c3C[C@H]2CN1C(=O)c1ccccc1 into the matching z-score band.
Low

Can you handle C[N+](C)(C)CCCC[C@@H]1NC(=O)[C@H]2C[C@@H](C(=O)NCCCCCCNC(=O)CS)[C@@H](c3cccc(OCCO)c3)N2C1=O next?
Medium

Can you handle CN(C)CCCC[C@@H]1NC(=O)[C@H]2C[C@@H](C(=O)NCCCCCCN)[C@@H](c3ccc(O)cc3)N2C1=O next?
High

Can you handle COc1cc2c(cc1OC)CN(C(=O)[C@H]1[C@@H]3C(=O)O[C@@H](c4ccccc4)[C@@H](c4ccccc4)N3[C@@H](c3ccc(O)cc3)[C@]13C(=O)Nc1ccc(C#CCCO)cc13)CC2 next?
High

Can you handle O=C(NCCO)C1=C[C@H](Oc2ccccc2I)[C@@H](O)[C@H](N(Cc2ccco2)C(=O)Cc2ccccc2)C1 next?
High

Can you handle CC(C)=CCCC(C)=CC(O)C1C=CC2C(=O)N(C)C(=O)C2N1Nc1ccccc1 (stereo unspecified) next?
Low

Can you handle CC(C)NC(=O)[C@@]1(c2ccc([N+](=O)[O-])cc2)CC(=O)N(C2CCCCC2)[C@@H]1c1ccc(CO)cc1I next?
High

Can you handle CC(C)NC(=O)[C@@]1(C)c2ccccc2C(=O)N(Cc2cc(C(F)(F)F)cc(C(F)(F)F)c2)[C@H]1c1ccc(CO)cc1 next?
Medium

Can you handle CCC[C@@H]1C[C@@]1(CCC)[C@@H](NS(=O)(=O)c1cccc2cccnc12)c1ccc(Cl)cc1 next?
Medium

###

Molecular target: Torsin-1A (Homo sapiens) (UniProt O14656)
Sequence (O14656 whole entry, looked up): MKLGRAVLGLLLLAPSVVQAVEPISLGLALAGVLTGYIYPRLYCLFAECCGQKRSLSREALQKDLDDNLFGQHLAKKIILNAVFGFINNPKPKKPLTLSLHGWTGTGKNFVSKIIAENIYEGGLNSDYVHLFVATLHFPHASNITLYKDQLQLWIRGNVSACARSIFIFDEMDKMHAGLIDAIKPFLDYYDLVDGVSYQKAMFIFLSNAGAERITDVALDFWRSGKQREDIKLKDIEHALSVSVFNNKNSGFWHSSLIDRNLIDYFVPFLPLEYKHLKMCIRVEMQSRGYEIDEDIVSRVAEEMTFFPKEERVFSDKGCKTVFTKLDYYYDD
Test: torsin A binders from cell lysate, primary screen, small-molecule microarray, wild-type, 635/667 nm (AID 1149)
Details: COS7 hTOR1A-WT lysate, 635 nm fluorescence, higher = more signal
composite z-score vs 0.4: at or above is 1.0, below is 0.0.

CC(=O)NCCCC[C@@H]1NC(=O)[C@H]2C[C@@H](C(=O)NCCCCCCNC(=O)CS)[C@@H](c3ccc(O)cc3)N2C1=O
0.0

In plain terms: is recorded composite z-score at least 0.4 for CCC(CC)C(O)C1C=CC2C(=O)NC(=O)C2N1Nc1ccc(Cl)cc1Cl (stereo not given) ?
0.0

Can you handle CCCC#C[Si](O[C@H](CC)c1cn(Cc2cccc(Cl)c2)nn1)(C(C)C)C(C)C next?
1.0

Can you handle COC(=O)[C@]1(CCC(=O)OC(C)(C)C)N=C(c2ccc(OCCCO)cc2)O[C@@H]1c1ccccc1CN=[N+]=[N-] next?
0.0

###

composite z-score values, listed per item
Biological target: Left-right determination factor 2 (Homo sapiens)
Experiment: LEFTY2 binders on small-molecule microarrays, primary screen, biochemical, small-molecule microarray, 635 nm fluorescence scan (AID 1110)
Details: LEFTY2 binding, higher = more signal
Respond numerically, and do not add a unit to the figure.

Cc1ccc(N2C(=O)c3ccccc3[C@@H](C(=O)NC3CC3)[C@@H]2c2ccc(CO)cc2)nc1
-3.3

Now, please, on to the next compound.
Lookup: composite z-score / Left-right determination factor 2 (Homo sapiens) / CCCCCN1CC=CC23O[C@@H]4C=CCCOC(=O)C4[C@H]2C(=O)N(CCCCCO)[C@@H]3C1=O (some centres not stated)
-0.368

###

Target: Fibroblast growth factor 2 (Homo sapiens)
Test: FGF2 binders on small-molecule microarrays, primary screen, biochemical, small-molecule microarray, 635/667 nm fluorescence (AID 1133)
Details: small-molecule microarray binding, FGF2, fluorescence 635/667; higher = more signal
metric: composite z-score
Respond numerically, and do not add a unit to the figure.

So what does the record say about composite z-score for C=C(COC)/C(=C/C[C@H](OC(C)=O)c1ccc(CO)o1)c1cc(C(=O)OC)ccc1OC ?
-0.1

Can you handle COc1ccc(C#Cc2ccc3c(c2)[C@]2(C(=O)N3)[C@H](C(=O)NC[C@H](O)c3ccccc3)[C@H]3C(=O)O[C@H](c4ccccc4)[C@H](c4ccccc4)N3[C@@H]2c2ccc(O)cc2)cc1 next?
0.811

Can you handle COCCOC(=O)N1C(=O)[C@@]2(c3ccccc31)[C@H](c1ccccc1OCCO)N1[C@H](c3ccccc3)[C@H](c3ccccc3)OC(=O)[C@H]1[C@@H]2C(=O)N1CCN(c2ncccn2)CC1 next?
0.385

Can you handle CC(=O)NCCCC[C@@H]1NC(=O)[C@H]2C[C@@H](C(=O)NCCCCCCNC(=O)CS)[C@@H](c3ccc(O)cc3)N2C1=O next?
0.141

Can you handle C[C@@]1([C@@H](NC(=O)c2ccc(-c3ccccc3)cc2)c2ccc(Cl)cc2)C[C@H]1C1CCCCC1 next?
-0.246

###

Experiment: adipocyte viability effects, profiling panel, cell-based, 3T3-L1 adipocytes, calcein-AM fluorescence, 48 h, basal (AID 1163); note: test concentration not given here
Conditions: 3T3-L1 adipocytes viability, higher = more signal
metric: z-score

Use these answered entries as a reference point.
COc1cc(Br)cc(C(O)C2C=CC3C(=O)N(C)C(=O)C3N2N2CCCCC2)c1OC (centres undefined)
-0.456
O=C1O[C@@H](c2ccccc2)[C@@H](c2ccccc2)N2[C@@H](c3ccccc3OCCO)[C@]3(C(=O)Nc4ccc(C#CC5=CCCCC5)cc43)[C@@H](C(=O)N3CCCCCCC3)[C@H]12
0.25
CN1C=C(C(=O)OCCS(C)(=O)=O)C(C(=O)OCCS(C)(=O)=O)=CC(c2ccc(CO)cc2)=CC1C1CC1 (centres undefined)
-0.0622

So what does the record say about z-score for NC(=O)NCC#Cc1ccc2c(c1)[C@]1(C(=O)N2)[C@H](C(N)=O)[C@H]2C(=O)O[C@H](c3ccccc3)[C@H](c3ccccc3)N2[C@@H]1c1ccc(O)cc1 ?
-0.842

###

Target: Follistatin (Homo sapiens) (UniProt P19883)
Sequence (P19883 whole entry, looked up): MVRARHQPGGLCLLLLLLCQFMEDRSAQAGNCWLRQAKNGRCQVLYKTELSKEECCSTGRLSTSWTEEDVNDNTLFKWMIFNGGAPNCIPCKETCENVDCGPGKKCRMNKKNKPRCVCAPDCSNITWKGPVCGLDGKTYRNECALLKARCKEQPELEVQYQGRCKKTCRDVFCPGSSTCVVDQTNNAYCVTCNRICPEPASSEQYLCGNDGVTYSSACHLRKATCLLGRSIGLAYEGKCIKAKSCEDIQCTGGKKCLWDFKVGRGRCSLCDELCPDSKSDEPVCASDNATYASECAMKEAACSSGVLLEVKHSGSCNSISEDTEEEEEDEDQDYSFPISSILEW
Test: follistatin binders on small-molecule microarrays, primary screen, biochemical, small-molecule microarray, 635/667 nm fluorescence (AID 1132)
Conditions: FST binding, 635 nm fluorescence, higher = more signal
composite z-score vs 0.4: at or above is label 1, below is label 0.

These recorded examples may help you get a feel for the data.
COC(=O)[C@@]1(Cc2ccccc2)[C@H]2c3cc(C(=O)N(C)C)n(Cc4ccsc4Br)c3C[C@H]2CN1C(=O)c1ccccc1
label 1
CN(C)CCCC[C@@H]1NC(=O)[C@H]2C[C@@H](C(=O)NCCCCCCN)[C@@H](c3ccc(O)cc3)N2C1=O
label 1
CC(C)[Si](C#Cc1ccc(Oc2ccccc2)cc1)(O[Si](C#Cc1ccc(Oc2ccccc2)cc1)(C(C)C)C(C)C)C(C)C
label 0
CO[C@H]1O[C@H](CO)[C@@H](OC(=O)Nc2cccc(F)c2)[C@H](OC(=O)Nc2ccccc2)[C@@H]1OC(=O)Nc1ccccc1
label 1

In plain terms: is recorded composite z-score at least 0.4 for COc1ccc(C#Cc2ccc3c(c2)[C@]2(C(=O)N3)[C@H](c3ccccc3OCCO)N3[C@H](c4ccccc4)[C@H](c4ccccc4)OC(=O)[C@H]3[C@@H]2C(=O)Nc2nc3ccccc3s2)cc1 ?
label 1

Can you handle O=C(N1CCCCC1)[C@]1(Cc2ccccc2)N=C(c2ccc(OCCCO)cc2)O[C@@H]1c1ccccc1 next?
label 0

Ref: PubChem BioAssay
